molecular target: FLT3 (Homo sapiens); test: DiscoverX KINOMEscan competition binding, FLT3; design: purchased Reaction Biology (RBC), HotSpot kinase assay
Listed compounds paired with reported Kd

| COMPOUND | Kd, nM |
| --- | --- |
| CC1(c2cn3c(-c4cccc(N[C@H]5CNCC56CC6)n4)cnc3cn2)CC1 [Compound 5] | 0.027 |
| FC(F)(F)C1(c2cn3c(-c4cccc(N[C@@H]5CCNC5)n4)cnc3cn2)CC1 [Compound 10] | 0.38 |
| FC(F)c1cn2c(-c3cccc(N[C@H]4CNCC[C@@H]4F)n3)cnc2cn1 [Compound 25] | 0.13 |
| CC1(c2cn3c(-c4cccc(N[C@H]5CNC[C@@H]5F)n4)cnc3cn2)CC1 [Compound 1] | 0.049 |
| CC1(c2cn3c(-c4cccc(N[C@@H]5CCNC5)n4)cnc3cn2)CC1 [Compound 3] | 0.056 |
| F[C@H]1CNC[C@@H]1Nc1cccc(-c2cnc3cnc(C4CC4)cn23)n1 [Compound 50] | 0.062 |

---

target: FLT3 D835H (Homo sapiens, UniProt P36888, D835H); assay: DiscoverX KINOMEscan competition binding, FLT3 D835H
Listed compounds paired with reported Kd

| SMILES_TEXT | Kd [nM] |
| --- | --- |
| CC(C)(O)c1cn2c(-c3cccc(N[C@@H]4CCCNC4)n3)cnc2cn1 | 1.2 |
| Cn1cc(-c2cn3c(-c4cccc(N[C@H]5CNC[C@@H]5F)n4)cnc3cn2)cn1 | 0.078 |
| FC(F)c1cn2c(-c3cccc(N[C@H]4CNCC[C@@H]4F)n3)cnc2cn1 | 0.18 |
| FC(F)(F)COc1cn2c(-c3cccc(N[C@@H]4CCNC4)n3)cnc2cn1 | 0.24 |

---

molecular target: IRAK4 (Homo sapiens, UniProt Q9NWZ3); assay: RBC HotSpot Kinase Assay, IRAK4; assay type: biochemical; set-up: purchased Reaction Biology (RBC), HotSpot kinase assay; conditions: isolated kinase, 33P-ATP
Sequence (Q9NWZ3 whole entry): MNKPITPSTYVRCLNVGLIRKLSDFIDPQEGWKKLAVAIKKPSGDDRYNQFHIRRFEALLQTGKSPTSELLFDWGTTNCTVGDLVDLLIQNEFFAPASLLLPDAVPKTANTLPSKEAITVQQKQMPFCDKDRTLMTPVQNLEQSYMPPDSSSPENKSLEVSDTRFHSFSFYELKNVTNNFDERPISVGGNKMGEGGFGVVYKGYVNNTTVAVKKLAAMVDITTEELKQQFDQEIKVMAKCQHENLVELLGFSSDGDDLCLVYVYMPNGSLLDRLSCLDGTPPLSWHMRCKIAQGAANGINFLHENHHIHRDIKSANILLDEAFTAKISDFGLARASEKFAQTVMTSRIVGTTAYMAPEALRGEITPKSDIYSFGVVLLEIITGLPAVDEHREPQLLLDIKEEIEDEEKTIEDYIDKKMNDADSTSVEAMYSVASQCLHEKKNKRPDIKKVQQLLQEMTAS
Listed compounds paired with reported IC50
PROPERTY_LABEL: IC50 (nM)

| COMPOUND | MEASURED_RESULT |
| --- | --- |
| CC(O)(c1cn2c(-c3cc(F)cc(N[C@@H]4CCCNC4)n3)cnc2cn1)C(F)(F)F (single isomer, unassigned) [Compound 85] | 54 |
| FC(F)(F)COc1cn2c(-c3cccc(N[C@@H]4CCNC4)n3)cnc2cn1 | 0.8 |
| CC1(c2cn3c(-c4cccc(N[C@H]5CNC[C@@H]5F)n4)cnc3cn2)CC1 | 0.5 |
| c1cc(N[C@@H]2CCCNC2)nc(-c2cnc3cnc(-c4cnn5ccccc45)cn23)c1 | 7 |

---

Listed molecules paired with reported IC50
Biological target: FLT3 (Homo sapiens, UniProt P36888)
Sequence (P36888 27-993): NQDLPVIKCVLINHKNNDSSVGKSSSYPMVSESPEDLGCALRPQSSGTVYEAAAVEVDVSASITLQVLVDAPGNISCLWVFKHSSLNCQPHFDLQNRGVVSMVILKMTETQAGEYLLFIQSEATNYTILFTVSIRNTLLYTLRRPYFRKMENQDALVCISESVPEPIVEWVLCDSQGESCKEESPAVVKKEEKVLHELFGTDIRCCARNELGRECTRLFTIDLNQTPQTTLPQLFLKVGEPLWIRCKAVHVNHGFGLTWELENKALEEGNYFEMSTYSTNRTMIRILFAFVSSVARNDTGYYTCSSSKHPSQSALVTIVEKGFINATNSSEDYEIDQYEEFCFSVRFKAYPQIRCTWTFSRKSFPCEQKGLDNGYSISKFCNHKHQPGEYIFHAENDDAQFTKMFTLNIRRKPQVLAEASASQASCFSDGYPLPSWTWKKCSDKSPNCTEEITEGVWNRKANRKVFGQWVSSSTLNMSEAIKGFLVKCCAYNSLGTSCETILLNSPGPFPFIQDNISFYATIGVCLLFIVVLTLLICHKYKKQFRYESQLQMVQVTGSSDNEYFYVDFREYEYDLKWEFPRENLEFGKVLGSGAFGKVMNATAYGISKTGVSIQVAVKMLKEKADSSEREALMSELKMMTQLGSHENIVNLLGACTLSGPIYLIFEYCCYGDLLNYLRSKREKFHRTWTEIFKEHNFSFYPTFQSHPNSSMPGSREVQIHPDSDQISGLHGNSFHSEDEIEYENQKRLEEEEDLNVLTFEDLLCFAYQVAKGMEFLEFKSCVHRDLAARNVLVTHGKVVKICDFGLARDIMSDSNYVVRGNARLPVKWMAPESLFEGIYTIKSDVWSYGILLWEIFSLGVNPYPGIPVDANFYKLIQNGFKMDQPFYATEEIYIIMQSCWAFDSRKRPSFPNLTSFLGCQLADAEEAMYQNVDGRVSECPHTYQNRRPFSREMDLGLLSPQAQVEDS
Assay: RBC HotSpot Kinase Assay, FLT3
Assay type: biochemical
Parameters: purchased Reaction Biology (RBC), HotSpot kinase assay
Details: isolated kinase, 33P-ATP

| MOLECULE | IC50 |
| --- | --- |
| CC(C)(O)Cn1cc(-c2cn3c(-c4cccc(N[C@H]5CNC[C@@H]5F)n4)cnc3cn2)cn1 | < 500 pM |
| CCOc1cn2c(-c3cccc(N[C@H]4CNC[C@@H]4F)n3)cnc2cn1 | < 500 pM |
| C[C@H]1CNC[C@@H]1Nc1cccc(-c2cnc3cnc(C(C)(C)O)cn23)n1 | 600 pM |
| C[C@@H]1CNC[C@H](Nc2cccc(-c3cnc4cnc(C5(C(F)(F)F)CC5)cn34)n2)C1 | 3000 pM |
| O=C1CCCN1c1cn2c(-c3cccc(N[C@@H]4CCCNC4)n3)cnc2cn1 | < 500 pM |
| CC(O)(c1cn2c(-c3cc(F)cc(N[C@@H]4CCCNC4)n3)cnc2cn1)C(F)(F)F (single isomer, unassigned) [Compound 85] | 600 pM |
| CC1(c2cn3c(-c4cccc(N[C@@H]5CCNC5)n4)cnc3cn2)CC1 | 700 pM |
| O=S1(=O)CCCCN1c1cn2c(-c3nc(N[C@@H]4CCCNC4)c(F)cc3F)cnc2cn1 | 900 pM |

---

molecular target: UniProt:P51617; test: RBC HotSpot Kinase Assay, IRAK1; conditions: isolated kinase, 33P-ATP
Sequence (P51617 whole entry): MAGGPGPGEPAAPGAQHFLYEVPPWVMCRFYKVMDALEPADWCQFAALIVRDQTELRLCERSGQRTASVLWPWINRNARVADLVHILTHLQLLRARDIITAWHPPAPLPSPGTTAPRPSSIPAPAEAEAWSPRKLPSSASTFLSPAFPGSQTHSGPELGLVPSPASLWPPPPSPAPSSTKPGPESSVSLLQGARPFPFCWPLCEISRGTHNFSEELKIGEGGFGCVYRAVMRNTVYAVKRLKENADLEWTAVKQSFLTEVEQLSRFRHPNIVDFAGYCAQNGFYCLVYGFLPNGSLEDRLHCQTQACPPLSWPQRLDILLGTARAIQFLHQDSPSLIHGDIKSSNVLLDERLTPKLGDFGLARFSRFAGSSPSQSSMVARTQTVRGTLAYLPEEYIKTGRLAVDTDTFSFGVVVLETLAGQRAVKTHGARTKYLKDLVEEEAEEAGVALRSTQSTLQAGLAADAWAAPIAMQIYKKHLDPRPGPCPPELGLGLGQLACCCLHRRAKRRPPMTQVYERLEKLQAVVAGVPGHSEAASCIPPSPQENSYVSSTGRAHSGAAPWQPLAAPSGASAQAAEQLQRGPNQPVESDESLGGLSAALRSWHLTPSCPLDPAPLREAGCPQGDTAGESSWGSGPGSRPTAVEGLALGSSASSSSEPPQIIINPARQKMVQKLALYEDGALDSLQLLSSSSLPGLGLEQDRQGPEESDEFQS
pIC50: −log10 of the molar value.
PROPERTY_LABEL: pIC50

| COMPOUND | MEASURED_RESULT |
| --- | --- |
| CC(C)(O)c1cn2c(-c3cccc(N[C@H]4CNC[C@@H](F)C4)n3)cnc2cn1 | 6.41 |
| CC1(c2cn3c(-c4cccc(N[C@H]5CNC[C@@H]5F)n4)cnc3cn2)CC1 | 7.20 |
| CC1(C)CCN(c2cn3c(-c4cccc(N[C@H]5CNC[C@@H]5F)n4)cnc3cn2)C1=O | 5.45 |
| C[C@H]1C[C@@H](Nc2cccc(-c3cnc4cnc(C(F)F)cn34)n2)CCN1 | 6.32 |
| O=S1(=O)CCCN1c1cn2c(-c3cccc(N[C@@H]4CCCNC4)n3)cnc2cn1 | 7.31 |
| FC(F)(F)COc1cn2c(-c3cccc(N[C@@H]4CCCNC4)n3)cnc2cn1 | 6.56 |
| CC(O)(c1cn2c(-c3cc(F)cc(N[C@H]4CNCC[C@@H]4F)n3)cnc2cn1)C(F)(F)F (single isomer, unassigned) [Compound 88] | 7.16 |
| FC(F)c1cn2c(-c3cccc(N[C@H]4CNCC[C@@H]4F)n3)cnc2cn1 | 6.84 |
| COc1cn2c(-c3cccc(N[C@H]4CNC[C@@H]4F)n3)cnc2cn1 | 6.08 |
| CC(O)(c1cn2c(-c3nc(N[C@H]4CNCC[C@@H]4F)c(F)cc3F)cnc2cn1)C(F)(F)F (single isomer, unassigned) [Compound 92] | 7.96 |
| c1cc(N[C@@H]2CCCNC2)nc(-c2cnc3cnccn23)c1 | 5.69 |
| CC(O)(c1cn2c(-c3cc(F)cc(N[C@H]4CNC[C@@H]4F)n3)cnc2cn1)C(F)(F)F (single isomer, unassigned) [Compound 84] | 6.94 |
| CC(C)(C)c1cn2c(-c3cc(F)cc(N[C@@H]4CCCNC4)n3)cnc2cn1 | 6.53 |
| F[C@H]1CNC[C@@H]1Nc1cccc(-c2cnc3cnc(-c4cnn5ccccc45)cn23)n1 | 6.52 |
| CC(O)(c1cn2c(-c3cccc(N[C@H]4CNCC[C@@H]4F)n3)cnc2cn1)C(F)(F)F (single isomer, unassigned) [Compound 80] | 7.19 |
| F[C@H]1CNCC[C@@H]1Nc1cccc(-c2cnc3cnc(OCC(F)(F)F)cn23)n1 | 6.85 |
| FC(F)(F)C1(c2cn3c(-c4cccc(N[C@@H]5CCCNC5)n4)cnc3cn2)CC1 | 6.90 |
| OC1(C(F)(F)F)CCN(c2cn3c(-c4cccc(N[C@H]5CNC[C@@H]5F)n4)cnc3cn2)C1 (stereo partly shown) | 5.22 |
| O=C1COCCN1c1cn2c(-c3cccc(N[C@H]4CNC[C@@H]4F)n3)cnc2cn1 | 5.37 |
| FC(F)(F)COc1cn2c(-c3cccc(N[C@H]4CNCC45CC5)n3)cnc2cn1 | 7.00 |
| CC(C)(C)c1cn2c(-c3cc(F)cc(N[C@H]4CNC[C@@H]4F)n3)cnc2cn1 | 6.32 |
| CC1(c2cn3c(-c4cccc(N[C@@H]5CCNC5)n4)cnc3cn2)CC1 | 7.06 |
| c1cc(N[C@@H]2CCCNC2)nc(-c2cnc3cnc(-c4cnn(C5CC5)c4)cn23)c1 | 5.70 |
| CC(O)(c1cn2c(-c3nc(N[C@H]4CNCC[C@@H]4F)c(F)cc3F)cnc2cn1)C(F)(F)F (single isomer, unassigned) [Compound 94] | 8.10 |
| Cn1cc(-c2cn3c(-c4cccc(N[C@H]5CNC[C@@H]5F)n4)cnc3cn2)cn1 | 6.69 |
| CC(C)(O)c1cn2c(-c3cccc(N[C@@H]4CCNC4)n3)cnc2cn1 | 6.94 |
| CC(C)(O)c1cn2c(-c3nc(N[C@H]4CNCC[C@@H]4F)c(F)cc3F)cnc2cn1 | 7.35 |
| CC(O)(c1cn2c(-c3nc(N[C@@H]4CCCNC4)c(F)cc3F)cnc2cn1)C(F)(F)F (single isomer, unassigned) [Compound 89] | 8.05 |
| CC(O)(c1cn2c(-c3nc(N[C@@H]4CCCNC4)c(F)cc3F)cnc2cn1)C(F)(F)F (single isomer, unassigned) [Compound 90] | 7.80 |
| CC(C)(O)c1cn2c(-c3nc(N[C@H]4CNC[C@@H]4F)c(F)cc3F)cnc2cn1 | 7.21 |
| FC(F)n1cc(-c2cn3c(-c4cccc(N[C@@H]5CCCNC5)n4)cnc3cn2)cn1 | 5.37 |

Each recorded value in this set is attributed to patent US12612410B2.
